This collection of values is drawn from PubChem BioAssay AID504863.

System: diaphorase (Clostridium kluyveri)
Test: diaphorase inhibitors and chemical oxidizers, confirmation, counter-screen for P. falciparum G6PD inhibitor project, biochemical, fluorescence intensity, 30 µM NADPH (AID 504863)
Experimental Conditions: Diaphorase/resazurin coupled assay, resorufin fluorescence, at 20 µM
The other results are listed elsewhere or left out. Activity calls are given as the source filed them.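 The calls were made as follows: active = inhibition averaging 50% or more, tested at 20 µM; inactive = the rest.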
Bench note: report the call from active, inactive

Worked set:
| Compound | Measurement Target | Classification |
| --- | --- | --- |
| O=C1/C(=C\c2ccc([N+](=O)[O-])cc2)CS(=O)(=O)C/C1=C/c1ccc([N+](=O)[O-])cc1 | diaphorase (Clostridium kluyveri) | inactive |
| COc1cccc(C(=O)Nc2nnc(S(=O)(=O)N(C)c3ccccc3)s2)c1 | diaphorase (Clostridium kluyveri) | active |
| COc1cccc(C(=O)Nc2nnc(S(=O)(=O)N3CCOCC3)s2)c1 | diaphorase (Clostridium kluyveri) | active |
| CCN(CC)c1ccc2oc(=O)c(C)nc2c1 | diaphorase (Clostridium kluyveri) | active |
| O=C(CN1CCN(c2ccc(O)cc2)CC1)Nc1cc(S(=O)(=O)N2CCOCC2)ccc1Cl | diaphorase (Clostridium kluyveri) | inactive |

[ask] # fetch the recorded call for Cc1ccnc(-n2sc3ccccc3c2=O)n1 here
[reply] inactive

[ask] # fetch the recorded call for O=C(Nc1nc(-c2ccncc2)cs1)C1COc2ccccc2O1 (stereo unspecified) here
[reply] inactive

[ask] # fetch the recorded call for COc1ccc(CCn2c(NN=C3CCCC3)nc3c2c(=O)[nH]c(=O)n3C)cc1 here
[reply] inactive
